Postemergence herbicidal rating CASOB: recorded values
- Test system: CASOB (Sicklepod)
- protocol_summary: Postemergence herbicidal evaluation
- Type: in vivo, Cassia obtusifolia
- assay_setup: Rate 0.0158 kg/ha
The answer should be a number; do not append a unit.

Completed entries (count: 3):
Record CCOC(=O)CN1C(=O)C(CC(=O)OC(C)C)SC1=Nc1cc(-n2c(=O)cc(C(F)(F)F)n(C)c2=O)c(F)cc1Cl (stereo not shown) . Reported Postemergence herbicidal rating CASOB: 0.0

Record `CCOC(=O)CN1CCSC1=Nc1cc(-n2nc(C)n(C(F)F)c2=O)c(F)cc1Cl` . Reported Postemergence herbicidal rating CASOB: 0.0

Record CCOC(=O)COc1ccccc1CC1S/C(=N/c2cc(-n3c(=O)cc(C(F)(F)F)n(C)c3=O)c(F)cc2Cl)N(CC(=O)OCC)C1=O (stereo not shown) . Reported Postemergence herbicidal rating CASOB: 4.0

With those in mind, consider the next compound.
Record Cn1c(C(F)(F)F)cc(=O)n(-c2cc(N=C3SCC(=O)N3CCC(=O)O)c(Cl)cc2F)c1=O [Compound 31] . Reported Postemergence herbicidal rating CASOB: 0.0

---

herbicidal effect rating, CYPSE: recorded values
- System: CYPSE (Flatsedge)
- protocol_summary: Preemergence weed control under flooded paddy conditions
- Assay type: in vivo, Cyperus serotinus
- assay_setup: 0.2500 kg/ha, rated 3-4 weeks after treatment
The answer should be a number; do not append a unit.

# value of herbicidal effect rating, CYPSE, CYPSE (Flatsedge), item `COc1cccc(CN2C(=O)CSC2=Nc2cc(-n3c(=O)cc(C(F)(F)F)n(C)c3=O)c(F)cc2Cl)c1` = 0.0

Next:
# value of herbicidal effect rating, CYPSE, CYPSE (Flatsedge), item C#CC(C)N1C(=O)CSC1=Nc1cc(-n2c(=O)cc(C(F)(F)F)n(C)c2=O)c(F)cc1Cl (stereo not shown) = 3.0

---

- Test system: SETVI (Foxtail, Green)
- protocol_summary: Postemergence herbicidal evaluation
- Format: in vivo, Setaria viridis
- assay_setup: Rate 0.0630 kg/ha
property_measured: Postemergence herbicidal rating SETVI
The answer should be a number; do not append a unit.

Completed entries (count: 4):
Record Cn1c(C(F)(F)F)cc(=O)n(-c2cc(/N=C3/SCC(=O)N3CC(=O)O)c(Cl)cc2F)c1=O [Compound 52] . Reported Postemergence herbicidal rating SETVI: 7.0

Record COC(=O)CCN1C(=O)CSC1=Nc1cc(-n2c(=O)cc(C(F)(F)F)n(C)c2=O)c(F)cc1Cl [Compound 28] . Reported Postemergence herbicidal rating SETVI: 9.0

Record CCOC(=O)CN1C(=O)C(CC(=O)OC(C)C)SC1=Nc1cc(-n2c(=O)cc(C(F)(F)F)n(C)c2=O)c(F)cc1Cl (centres unmarked) [Compound 60] . Reported Postemergence herbicidal rating SETVI: 5.0

Record CCOP(=O)(CN1C(=O)CSC1=Nc1cc(-n2c(=O)cc(C(F)(F)F)n(C)c2=O)c(F)cc1Cl)OCC [Compound 35] . Reported Postemergence herbicidal rating SETVI: 4.0

Next:
Record C#CCOC(=O)CC1SC(=Nc2cc(-n3c(=O)cc(C(F)(F)F)n(C)c3=O)c(F)cc2Cl)N(CC(=O)OCC)C1=O (centres unmarked) [Compound 59] . Reported Postemergence herbicidal rating SETVI: 9.0
